Tested on: S. aureus Human ATCC 25923
measurement-name: MIC (µg/mL)
Only the number, expressed in µg/mL, is required.

Examples with answers:
C[C@H](CCC(=O)NC1CCCCC1)[C@H]1CCC2C3C(CC[C@@]21C)[C@@]1(C)CC[C@H](NCCCN(CCCN)CCCN)CC1C[C@H]3O (some centres unmarked) [(47)] = 4
CC(C)N(C(=O)CC[C@@H](C)[C@H]1CCC2C3C(CC[C@@]21C)[C@@]1(C)CC[C@H](NCCCNCCCNCCCN)CC1C[C@H]3O)C(C)C (some centres unmarked) [(40)] = 4
CC(C)N(C(=O)CC[C@@H](C)[C@H]1CCC2C3C(CC[C@@]21C)[C@@]1(C)CC[C@H](NCCCN(CCCN)CCCN)CC1C[C@H]3O)C(C)C (some centres unmarked) [(56)] = 4
CC(C)NC(=O)CC[C@@H](C)[C@H]1CCC2C3C(CC[C@@]21C)[C@@]1(C)CC[C@H](NCCCN2CCN(CCCN)CC2)CC1C[C@H]3O (some centres unmarked) [(9)] = 16
CC(C)NC(=O)CC[C@@H](C)[C@H]1CCC2C3C(CC[C@@]21C)[C@@]1(C)CC[C@H](NCCCNCCCCNCCCN)CC1C[C@H]3O (some centres unmarked) [Compound (32)] = 7

// next item, MIC requested
Q: Look up and report measured MIC (S. aureus Human ATCC 25923) for the following molecule: CC(C)NC(=O)CC[C@@H](C)[C@H]1CCC2C3C(CC[C@@]21C)[C@@]1(C)CC[C@H](NCCNCCNCCNCCNCCN)CC1C[C@@H]3O (some centres unmarked) [(23)]
Ans: 32

* * *

System: S. aureus Human ATCC 25923
Assay: MIC determination, S. aureus human ATCC 25923
Type: cell-based
Conditions: Staphylococcus aureus, ATCC25923; Gram-positive; Mueller-Hinton medium, 24 h at 37° C.
Doc: threshold 7 µg/mL (exclusive). Items with MIC beneath it return Yes; others return No.

Answered cases to consult:
CC(C)NC(=O)CC[C@@H](C)[C@H]1CCC2C3C(CC[C@@]21C)[C@@]1(C)CC[C@H](NCCCNCCCN)CC1C[C@H]3O (stereo partly shown) = Yes
CC(C)NC(=O)CC[C@@H](C)[C@H]1CCC2C3CCC4C[C@@H](NCCCN(CCCN)CCCN)CC[C@]4(C)C3C[C@H](O)[C@@]21C (stereo partly shown) = Yes
CC(C)NC(=O)CC[C@@H](C)[C@H]1CCC2C3C(CC[C@@]21C)[C@@]1(C)CC[C@H](NCCCNCCCN)CC1C[C@@H]3O (stereo partly shown) = No
CC(C)NC(=O)CC[C@@H](C)[C@H]1CCC2C3C(CC[C@@]21C)[C@@]1(C)CC[C@H](NCCCN(CCCN)CCCN)CC1C[C@@H]3O (stereo partly shown) = No
CCN(CC)C(=O)CC[C@@H](C)[C@H]1CCC2C3C(CC[C@@]21C)[C@@]1(C)CC[C@H](NCCCNCCCN)CC1C[C@H]3O (stereo partly shown) = Yes
CCN(CC)C(=O)CC[C@@H](C)[C@H]1CCC2C3C(CC[C@@]21C)[C@@]1(C)CC[C@H](NCCCNCCNCCCN)CC1C[C@H]3O (stereo partly shown) = Yes

Q: Criterion: MIC strictly below 7 µg/mL. Is it met by CCN(CC)C(=O)CC[C@@H](C)[C@H]1CCC2C3C(CC[C@@]21C)[C@@]1(C)CC[C@H](NCCCNCCCNCCCN)CC1C[C@H]3O (stereo partly shown) ?
Ans: Yes

Q: Determine if CC(C)NC(=O)CC[C@@H](C)[C@H]1CCC2C3C(CC[C@@]21C)[C@@]1(C)CC[C@H](NCCNCCNCCNCCNCCN)CC1C[C@H]3O (stereo partly shown) shows MIC strictly lower than 7 µg/mL.
Ans: No

Q: In the record for CC(C)NC(=O)CC[C@@H](C)[C@H]1CCC2C3C(CC[C@@]21C)[C@@]1(C)CC[C@H](NCCCNCCCNCCCN)CC1C[C@@H]3O (stereo partly shown) , is MIC less than 7 µg/mL?
Ans: No

Q: Find out if reported MIC for CC(C)NC(=O)CC[C@@H](C)[C@H]1CCC2C3CCC4C[C@@H](NCCCN(CCCN)CCCN)CC[C@]4(C)C3CC[C@@]21C (stereo partly shown) is less than 7 µg/mL
Ans: Yes

Q: Quick check: does CNC(=O)CC[C@@H](C)[C@H]1CCC2C3C(CC[C@@]21C)[C@@]1(C)CC[C@H](NCCCNCCCN)CC1C[C@H]3O (stereo partly shown) have MIC under 7 µg/mL?
Ans: Yes
